B1: Caulobacter ParB omega fusion; a variant is named by its letters at X, in order, B8GW30 (parent)
chain: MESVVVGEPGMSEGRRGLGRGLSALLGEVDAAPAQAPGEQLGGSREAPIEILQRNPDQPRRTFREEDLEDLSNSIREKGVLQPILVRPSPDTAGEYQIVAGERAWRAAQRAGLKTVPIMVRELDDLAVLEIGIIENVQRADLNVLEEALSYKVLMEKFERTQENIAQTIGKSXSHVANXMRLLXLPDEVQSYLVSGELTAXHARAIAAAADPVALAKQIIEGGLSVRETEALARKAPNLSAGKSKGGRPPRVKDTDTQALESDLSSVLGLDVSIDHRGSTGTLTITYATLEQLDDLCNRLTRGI

Variants of: B1
Method: one-hybrid fitness for binding NBS DNA (the Noc-binding site; scaled: cognate 1, non-cognate 0); higher = stronger binding
Protocol conditions: with NBS DNA site
Over roughly 81,000 sequences, “one-hybrid fitness for binding NBS DNA” has its median near -0.1; the highest 2% begin near 0.36. This is one part of a sample in which the highest values are shown more often than they occur.
So I've got a bunch of variants here, and I need their one-hybrid fitness for binding NBS DNA values.

Some variants with known one-hybrid fitness for binding NBS DNA results, for comparison:
1. QTVQ 0.534
2. TLLD ≤ 0.2
3. QDTP ≤ 0.2
4. HFFR ≤ 0.2
5. RRCG 0.296

Value sought for every listed variant: one-hybrid fitness for binding NBS DNA.
1. VLTL
2. RHAT
3. VWQD
4. KRAR

A)
1: ≤ 0.2; 2: 0.432; 3: ≤ 0.2; 4: 0.541

Value sought for every listed variant: one-hybrid fitness for binding NBS DNA.
1. DSLM
2. ADWS
3. SATK
4. LLQA
5. RHYR
6. HMMA
7. PELM

A)
1: ≤ 0.2; 2: ≤ 0.2; 3: ≤ 0.2; 4: ≤ 0.2; 5: 0.387; 6: ≤ 0.2; 7: ≤ 0.2

Value sought for every listed variant: one-hybrid fitness for binding NBS DNA.
1. RRCS
2. LPAV
3. RRCN
4. RMPC
5. RAFT

A)
0.642
≤ 0.2
0.248
≤ 0.2
0.242
